Please provide measured z-score for the entries that follow.
Assay: growth modulation of vineyard yeast isolate – strain RM11-1a, OD600, basal, 24 h, primary screen (AID 1177);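 note: cultures grown under basal conditions with no added stressor; test concentration not given here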
Details: S. cerevisiae RM11-1a growth, OD600, 24 h; higher = more signal, called active from +8 up or from −8 down
I'd appreciate a reply containing only the number, no unit.

Name the recorded z-score for `COCCOC(=O)N1C(=O)[C@@]2(c3cc(C#Cc4ccc(OC)cc4)ccc31)[C@H](c1ccc(OCCO)cc1)N1[C@H](c3ccccc3)[C@H](c3ccccc3)OC(=O)[C@H]1[C@@H]2C(=O)NC[C@H](O)c1ccccc1` .
3.81

Let us now turn to `COC(=O)C(CC#Cc1ccc2c(c1)[C@]1(C(=O)N2)[C@H](C(=O)N2CCc3cc(OC)c(OC)cc3C2)[C@H]2C(=O)O[C@H](c3ccccc3)[C@H](c3ccccc3)N2[C@@H]1c1ccccc1OCCO)C(=O)OC`
2.83

Let us now turn to `CCOC(=O)C1=CC[C@@H](c2ccccc2)N(S(=O)(=O)c2ccc(C)cc2)[C@H]1c1ccccc1I`
-0.217

Let us now turn to `COc1ccc(C#Cc2ccc3c(c2)[C@]2(C(=O)N3)[C@H](C(=O)O)[C@H]3C(=O)O[C@H](c4ccccc4)[C@H](c4ccccc4)N3[C@@H]2c2ccccc2OCCO)cc1`
2.48

Let us now turn to `COCCCNC(=O)[C@@]1(CCS(=O)(=O)c2ccccc2)COC(c2ccc(OCCCO)cc2)=N1`
-0.19

Let us now turn to `COc1ccc(C(=O)Nc2cccc(CN3C(=O)[C@]4(O[C@H](CC(=O)N5Cc6ccccc6C[C@H]5CO)[C@@H]([Si](C)(C)c5ccc(OC)cc5)[C@@H]4C)c4ccccc43)c2)cc1`
2.82

Let us now turn to `O=C1C[C@@](C(=O)O)(c2ccc([N+](=O)[O-])cc2)[C@@H](c2ccc(CO)cc2)N1C1CCCCC1`
1.3

Let us now turn to `NC(=O)NCC#Cc1ccc2c(c1)[C@]1(C(=O)N2)[C@H](c2ccc(OCCO)cc2)N2[C@H](c3ccccc3)[C@H](c3ccccc3)OC(=O)[C@H]2[C@@H]1C(=O)NC[C@H](O)c1ccccc1`
2.58

Let us now turn to `COC(=O)[C@@]1(Cc2ccccc2)N=C(c2ccc(OCCCO)cc2)O[C@H]1c1ccccc1CN=[N+]=[N-]`
2.85

Let us now turn to CC1CC/C=C\[C@H]2OC34C=CCN(Cn5nnc6ccccc65)C(=O)[C@H]3N(CCCCCCO)C(=O)[C@@H]4C2C(=O)O1 (stereo partly specified)
0.85

Let us now turn to `Cc1ccc(S[C@]2(C(=O)NCC(F)(F)F)CC(=O)N(Cc3ccccc3C(F)(F)F)[C@@H]2c2ccc(CO)cc2)cc1`
-0.404

Let us now turn to `COc1cc(CO)cc(I)c1O[C@H]1C=C(C(=O)NCCO)C[C@@H]2O[C@H]12`
1.69

Let us now turn to O=C1C2C=CC(C(O)c3cccs3)N(Nc3ccc([N+](=O)[O-])cc3)C2C(=O)N1c1ccccc1 (stereo unspecified)
-0.0522

Let us now turn to `C=CCN1C(=O)[C@]2(O[C@H](CCn3cc([C@H](O)c4ccccc4)nn3)[C@@H]([Si](C)(C)c3ccc(OC)cc3)[C@@H]2C)c2cc(NC(=O)c3ccc(OC)cc3)ccc21`
1.11

Let us now turn to `CCCCCCc1nc(Cc2cc(OC)c(OC)c(OC)c2)cc2c1[Si](C(C)C)(C(C)C)O[C@H]2c1ccccc1`
0.202

Let us now turn to `Cc1ccc(S[C@]2(C(=O)NC3CC3)CC(=O)N(C(C)C)[C@@H]2c2ccc(CO)cc2I)cc1`
-2.02

Let us now turn to Cc1ccc(C(C)CC(O)C2C=CC3C(=O)N(C)C(=O)C3N2Nc2ccccc2)o1 (stereo unspecified)
0.051

Let us now turn to O=C1OCCC=C[C@H]2OC34C=CCN(c5ccc6ccccc6c5)C(=O)[C@H]3N(CCO)C(=O)[C@@H]4C12 (stereo partly specified)
0.0789

Let us now turn to `COCCCNC(=O)[C@@]1(Sc2ccc(C)cc2)CC(=O)N(Cc2ccccc2C(F)(F)F)[C@@H]1c1ccc(CO)cc1I`
-1.2

Let us now turn to `C=C(CCCC)/C(=C/C[C@H](OC(=O)c1ccncc1)c1ccccc1OCCO)c1cc(C(=O)OC)ccc1OC`
-0.3

Let us now turn to `COC(=O)[C@@]1(Cc2ccccc2)[C@H]2c3cc(C(=O)N4CCCC4)n(Cc4ccc(OC)c(OC)c4)c3C[C@H]2CN1C(=O)c1ccccc1`
1.72
